Origin of the recorded values: ChEMBL document CHEMBL4622903

Tested on: HEC-1-A
Assay: Antiproliferative activity against human Hec1A cells assessed as inhibition of cell viability by CCK8 assay
Assay type: functional, cell-based
parameter_measured: IC50 (µM)

>>> print(df.to_string())
                                   molecule  readout_unit  observed_value
0  CC(=O)O[C@]1(C(C)=O)CC[C@H]2[C@@H]3C[C@H](C)C4=CC(=O)CC[C@]4(C)[C@H]3CC[C@@]21C [MEDROXYPROGESTERONE ACETATE]            µM            51.8
1  OCCN1CCN(CCCN2c3ccccc3Sc3ccc(Cl)cc32)CC1 [PERPHENAZINE]            µM            23.3

====

pIC50 for assorted compounds
Test system: KLE
Test: Antiproliferative activity against human KLE cells assessed as inhibition of cell viability by CCK8 assay
Assay type: functional, cell-based
pIC50: −log10 of the molar value.
parameter_measured: pIC50

>>> print(df.to_string())
                                   compound  parameter_measured  readout_relation  observed_value
0  CC(=O)O[C@]1(C(C)=O)CC[C@H]2[C@@H]3C[C@H](C)C4=CC(=O)CC[C@]4(C)[C@H]3CC[C@@]21C [MEDROXYPROGESTERONE ACETATE]               pIC50                 <            4.10
1  OCCN1CCN(CCCN2c3ccccc3Sc3ccc(Cl)cc32)CC1               pIC50                 =            4.51
